Listed below: IC50 values for each entry.
target: Receptor-interacting serine/threonine-protein kinase 2 (Homo sapiens); experiment: Displacement of fluorescein labeled probe from full length human GST-tagged RIPK2 expressed in Sf9 cells incubated for 60 mins by HTRF assay
Sequence (O43353 whole entry): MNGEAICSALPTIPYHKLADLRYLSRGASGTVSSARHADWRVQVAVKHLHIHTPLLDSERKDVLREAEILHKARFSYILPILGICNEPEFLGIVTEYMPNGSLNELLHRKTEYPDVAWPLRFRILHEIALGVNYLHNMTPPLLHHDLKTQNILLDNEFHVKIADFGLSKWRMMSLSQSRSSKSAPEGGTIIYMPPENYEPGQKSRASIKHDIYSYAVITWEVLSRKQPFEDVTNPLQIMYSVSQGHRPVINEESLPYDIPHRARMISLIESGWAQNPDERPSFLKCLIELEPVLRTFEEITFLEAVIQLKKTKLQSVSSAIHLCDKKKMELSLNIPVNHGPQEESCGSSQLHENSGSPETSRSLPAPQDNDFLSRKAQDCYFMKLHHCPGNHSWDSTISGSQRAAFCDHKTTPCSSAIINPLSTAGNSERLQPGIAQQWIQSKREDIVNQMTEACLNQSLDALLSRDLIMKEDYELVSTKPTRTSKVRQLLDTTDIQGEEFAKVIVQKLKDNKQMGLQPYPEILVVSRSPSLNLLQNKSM
Answer in µM, number only, no unit symbol.

Cc1ccc(COC(=O)Nc2cc(-c3cc4c([nH]3)CCNC4=O)ccn2)cc1 :: 0.05

[ask] Using known records, supply IC50 for Nc1ccc(C#Cc2c(Oc3ccc(NC(=O)c4cccn(-c5ccc(F)cc5)c4=O)cc3F)ccnc2N)nc1
[reply] 2.4

###

target: Receptor-interacting serine/threonine-protein kinase 3 (Homo sapiens); test: Displacement of fluorescein labeled probe from full length human GST-tagged RIPK3 expressed in Sf9 cells incubated for 60 mins by HTRF assay
Sequence (Q9Y572 whole entry): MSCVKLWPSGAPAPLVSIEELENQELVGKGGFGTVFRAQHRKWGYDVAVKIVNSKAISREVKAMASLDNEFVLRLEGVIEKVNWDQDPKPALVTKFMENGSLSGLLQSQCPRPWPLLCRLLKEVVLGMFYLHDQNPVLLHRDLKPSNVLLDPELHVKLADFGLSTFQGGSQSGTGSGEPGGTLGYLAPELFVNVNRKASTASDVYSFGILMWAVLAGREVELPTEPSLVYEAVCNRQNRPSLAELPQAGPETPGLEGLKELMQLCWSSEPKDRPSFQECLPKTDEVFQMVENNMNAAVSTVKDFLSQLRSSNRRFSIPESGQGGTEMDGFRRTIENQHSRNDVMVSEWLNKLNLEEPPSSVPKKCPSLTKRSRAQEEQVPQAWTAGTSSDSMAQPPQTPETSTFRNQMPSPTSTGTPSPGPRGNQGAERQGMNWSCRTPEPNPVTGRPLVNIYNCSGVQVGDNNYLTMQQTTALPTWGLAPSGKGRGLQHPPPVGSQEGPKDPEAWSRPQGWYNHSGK
Examples of compounds with documented IC50 follow.
# unit: nM | format: bare number

Cc1ccc(COC(=O)Nc2cc(-c3cc4c([nH]3)CCNC4=O)ccn2)cc1 :: 270

[ask] Param request: IC50 | system Receptor-interacting serine/threonine-protein kinase 3 (Homo sapiens) | item Nc1ccc(C#Cc2c(Oc3ccc(NC(=O)c4cccn(-c5ccc(F)cc5)c4=O)cc3F)ccnc2N)nc1
[reply] 0.3
